Assay: In vitro metabolic stability in mouse liver homogenate at 37° C.
Assay type: in vitro ADME
Details: female, Tac:NCr:Foxn1nu/nu, mouse, tissue homogenate, pH 7.2
RESULT TYPE: remaining at 10 min, 2.3 mCi/mL

MOLECULE: N=C(N)NCCC[C@H](NC(=O)[C@@H](Cc1ccc2ccccc2c1)NC(=O)CN1CCN(CC(=O)O)CCN(CC(=O)O)CCN(CC(=O)O)CC1)C(=O)N[C@@H](Cc1c[nH]c2ccccc12)C(=O)N[C@@H](CO)C(=O)N[C@@H](Cc1cnc[nH]1)C(=O)N[C@H](CCCNC(=N)N)C(=O)N[C@@H](Cc1c[nH]c2ccccc12)C(=O)N[C@@H](Cc1ccc(C(=O)c2ccccc2)cc1)C(=O)N1CCC[C@H]1C(=O)NNC(N)=O [177Lu-BRU-2813, metal not drawn]
OBS VALUE: 18.3%

----------
System: LHRH binding sites on human ovarian cancer cells (EFO-27);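 note: Cell-associated radioactivity on confluent EFO-27 monolayers in 96-well plates, measured by microplate scintillation counting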
Conditions: ratio of EC50 to BRU-2813 (EC50=0.33 μM)
Non-standard residues stand in square brackets, D forms with d. Residues, ends and D or L forms follow the SMILES beside them. *: point of attachment. DOTA = O=C(O)CN1CCN(CC(=O)O)CCN(CC(=O)*)CCN(CC(=O)O)CC1; Bpa = N[C@@H](Cc1ccc(C(=O)c2ccccc2)cc1)C(=O)O; d2Nal = N[C@H](Cc1ccc2ccccc2c1)C(=O)O; azaGly = NNC(=O)O
Reported binding potency, times lower than BRU-2813 by item:
RESULT TYPE: binding potency, times lower than BRU-2813

COMPOUND: CN(C(=O)CN1CCN(CC(=O)O)CCN(CC(=O)O)CCN(CC(=O)O)CC1)[C@H](Cc1ccc2ccccc2c1)C(=O)N[C@@H](CCCNC(=N)N)C(=O)N[C@@H](Cc1c[nH]c2ccccc12)C(=O)N[C@@H](CO)C(=O)N[C@@H](Cc1c[nH]cn1)C(=O)N[C@H](CCCNC(=N)N)C(=O)N[C@@H](Cc1c[nH]c2ccccc12)C(=O)N[C@@H](Cc1ccc(C(=O)c2ccccc2)cc1)C(=O)N1CCC[C@H]1C(=O)NNC(N)=O
OBS VALUE: ~2
//
COMPOUND: N=C(N)NCCC[C@H](NC(=O)[C@@H](Cc1ccc2ccccc2c1)NC(=O)CN1CCN(CC(=O)O)CCN(CC(=O)O)CCN(CC(=O)O)CC1)C(=O)N[C@@H](Cc1c[nH]c2ccccc12)C(=O)N[C@@H](CO)C(=O)N[C@@H](Cc1c[nH]cn1)C(=O)N[C@H](CCCNC(=N)N)C(=O)N[C@@H](Cc1c[nH]c2ccccc12)C(=O)N[C@@H](Cc1ccc(C(=O)c2ccccc2)cc1)C(=O)N1C[C@H](c2ccccc2)C[C@H]1C(=O)NNC(N)=O
OBS VALUE: 2
//
COMPOUND: N=C(N)NCCC[C@H](NC(=O)[C@@H](Cc1ccc2ccccc2c1)NC(=O)CN1CCN(CC(=O)O)CCN(CC(=O)O)CCN(CC(=O)O)CC1)C(=O)N[C@@H](CCC(=O)O)C(=O)N[C@@H](CO)C(=O)N[C@@H](Cc1c[nH]cn1)C(=O)N[C@H](CCCNC(=N)N)C(=O)N[C@@H](Cc1c[nH]c2ccccc12)C(=O)N[C@@H](Cc1ccc(C(=O)c2ccccc2)cc1)C(=O)N1CCC[C@H]1C(=O)NNC(N)=O [BRU-3110] ({DOTA}-[d2Nal]RESH[dR]W[Bpa]P[azaGly]-NH2; C-terminus assumed)
OBS VALUE: ~8
//
COMPOUND: N=C(N)NCCC[C@H](NC(=O)[C@@H](Cc1ccc2ccccc2c1)NC(=O)CN1CCN(CC(=O)O)CCN(CC(=O)O)CCN(CC(=O)O)CC1)C(=O)N[C@@H](Cc1c[nH]c2ccccc12)C(=O)N[C@@H](CC(=O)O)C(=O)N[C@@H](Cc1c[nH]cn1)C(=O)N[C@H](CCCNC(=N)N)C(=O)N[C@@H](Cc1c[nH]c2ccccc12)C(=O)N[C@@H](Cc1ccc(C(=O)c2ccccc2)cc1)C(=O)N1CCC[C@H]1C(=O)NNC(N)=O [BRU-2954] ({DOTA}-[d2Nal]RWDH[dR]W[Bpa]P[azaGly]-NH2)
OBS VALUE: ~13
